Answer each item with its documented EC50.
system: human M1 (Homo sapiens)
Construct: expressed in transfected cells; host or cells: CHO cells
Sequence (P11229 whole entry): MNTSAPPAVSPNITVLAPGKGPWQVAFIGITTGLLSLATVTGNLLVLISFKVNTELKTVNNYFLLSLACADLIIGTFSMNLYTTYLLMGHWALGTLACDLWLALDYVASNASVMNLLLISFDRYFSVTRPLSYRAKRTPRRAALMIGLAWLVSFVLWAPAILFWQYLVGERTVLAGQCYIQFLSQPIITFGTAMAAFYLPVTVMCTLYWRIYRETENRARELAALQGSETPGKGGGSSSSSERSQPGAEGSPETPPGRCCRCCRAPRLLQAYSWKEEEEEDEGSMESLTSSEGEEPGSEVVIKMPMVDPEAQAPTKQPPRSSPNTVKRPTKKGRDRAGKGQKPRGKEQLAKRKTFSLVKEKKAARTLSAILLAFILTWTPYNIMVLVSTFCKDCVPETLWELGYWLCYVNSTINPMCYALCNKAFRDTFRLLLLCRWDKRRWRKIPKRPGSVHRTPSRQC
procedure text: M1 PAM assay (FLIPR intracellular calcium, CHO human M1)
Format: cell-based
run conditions: human M1 in CHO cells; modulator activity with EC20 of acetylcholine; FLIPR Ca2+; read-out: EC50 h PAM
Numeric answer only, unit nM assumed.

# lookup: EC50 of `CO[C@H]1CCCC[C@@H]1NC(=O)c1cn(Cc2ccc(-c3cnn(C)c3)cc2F)c2cccnc12`
369

# EC50 lookup, item `Cn1cc(-c2ccc(Cn3cc(C(=O)Nc4ccccc4CO)c4ncccc43)c(F)c2)cn1`
298

Query (molecule): `CC(C)C[C@@H](CO)NC(=O)c1cn(Cc2ccc(-c3cnn(C)c3)cc2F)c2cccnc12` ; field requested: EC50
233

Query (molecule): `Cn1cc(-c2ccc(Cn3cc(C(=O)NCC4(O)CC4)c4ncccc43)c(F)c2)cn1` ; field requested: EC50
315

Fill in the blank: the reported EC50 of `C[C@@H](O)CNC(=O)c1cn(Cc2ccc(-c3cnn(C)c3)cc2F)c2cccnc12` is ____.
459

Record request: EC50 value, item `O=C(N[C@H]1CCCC[C@@H]1O)c1cn(Cc2ccc(Br)cc2)c2cccnc12`
319

# get_value(readout='EC50', item= `C[C@H](O)CNC(=O)c1cn(Cc2ccc(-c3cnn(C)c3)cc2F)c2cccnc12` )
477

Reported EC50, molecule COCC(O)CNC(=O)c1cn(Cc2ccc(-c3cnn(C)c3)cc2F)c2cccnc12 (racemic) : ____
232

Item `Cc1ccc(NC(=O)c2cn(Cc3ccc(-c4cnn(C)c4)cc3F)c3cccnc23)c(CO)c1` has what recorded EC50?
282

Each recorded value in this set is attributed to patent US9932335B2.
